protocol_summary: Plasma protein binding in human
Assay type: ADME, cell-free
condition: read-out: PPB (converted)
readout: fraction unbound

[a] CC(C)NC(=O)c1cc(-c2ccc(NC(=O)[C@H](O)c3cc(F)cc(F)c3)cc2Cl)cnc1N
[b] Cc1cc(NC(=O)[C@H](O)c2cc(F)cc(F)c2)ccc1-c1cnc(N)c(C(=O)NC2CC2)c1
[c] Cc1cc(NC(=O)[C@H](O)c2cc(F)cc(F)c2)ccc1-c1cnc(N)c(C(=O)NC(C)C)c1
Incoming: Reorder: fraction unbound, max to min. Provide the labels, sequenced as the question asks.
Outgoing: b, c, a

[A] CCc1cc(NC(=O)[C@H](O)c2cc(F)cc(F)c2)ccc1-c1cnc(N)c(C(=O)NC(C)C)c1
[B] CCNC(=O)c1cc(-c2ccc(NC(=O)[C@H](O)c3cc(F)cc(F)c3)cc2C)cnc1N
Incoming: Lab note: check whether A or B has the lower measured fraction unbound. Provide the label of your selected option as the answer.
Outgoing: A

###

protocol_summary: Plasma protein binding in rat
Assay type: ADME, cell-free
condition: read-out: PPB (converted)
readout: fraction unbound

[I] CC(C)NC(=O)c1cc(-c2ccc(NC(=O)[C@H](O)c3cc(F)cc(F)c3)cc2Cl)cnc1N
[II] Cc1cc(NC(=O)[C@H](O)c2cccc(Cl)c2)ccc1-c1cnc(N)c(C(=O)NC(C)C)c1
Incoming: Field: lower recorded fraction unbound (choose I or II ) Kindly give the label for the entry you pick.
Outgoing: I
(I: 0.007, II: 0.013)

[P] Cc1cc(NC(=O)[C@H](O)c2cc(F)cc(F)c2)ccc1-c1cnc(N)c(C(=O)NC2CC2)c1
[Q] CCc1cc(NC(=O)[C@H](O)c2cc(F)cc(F)c2)ccc1-c1cnc(N)c(C(=O)NC(C)C)c1
Incoming: Response body: label of entry with the larger fraction unbound; valid values P , Q . Use the label to indicate which entry you chose.
Outgoing: P

###

target_entity: Eukaryotic translation initiation factor 2-alpha kinase 3 (Homo sapiens, UniProt Q9NZJ5)
Sequence (Q9NZJ5 whole entry): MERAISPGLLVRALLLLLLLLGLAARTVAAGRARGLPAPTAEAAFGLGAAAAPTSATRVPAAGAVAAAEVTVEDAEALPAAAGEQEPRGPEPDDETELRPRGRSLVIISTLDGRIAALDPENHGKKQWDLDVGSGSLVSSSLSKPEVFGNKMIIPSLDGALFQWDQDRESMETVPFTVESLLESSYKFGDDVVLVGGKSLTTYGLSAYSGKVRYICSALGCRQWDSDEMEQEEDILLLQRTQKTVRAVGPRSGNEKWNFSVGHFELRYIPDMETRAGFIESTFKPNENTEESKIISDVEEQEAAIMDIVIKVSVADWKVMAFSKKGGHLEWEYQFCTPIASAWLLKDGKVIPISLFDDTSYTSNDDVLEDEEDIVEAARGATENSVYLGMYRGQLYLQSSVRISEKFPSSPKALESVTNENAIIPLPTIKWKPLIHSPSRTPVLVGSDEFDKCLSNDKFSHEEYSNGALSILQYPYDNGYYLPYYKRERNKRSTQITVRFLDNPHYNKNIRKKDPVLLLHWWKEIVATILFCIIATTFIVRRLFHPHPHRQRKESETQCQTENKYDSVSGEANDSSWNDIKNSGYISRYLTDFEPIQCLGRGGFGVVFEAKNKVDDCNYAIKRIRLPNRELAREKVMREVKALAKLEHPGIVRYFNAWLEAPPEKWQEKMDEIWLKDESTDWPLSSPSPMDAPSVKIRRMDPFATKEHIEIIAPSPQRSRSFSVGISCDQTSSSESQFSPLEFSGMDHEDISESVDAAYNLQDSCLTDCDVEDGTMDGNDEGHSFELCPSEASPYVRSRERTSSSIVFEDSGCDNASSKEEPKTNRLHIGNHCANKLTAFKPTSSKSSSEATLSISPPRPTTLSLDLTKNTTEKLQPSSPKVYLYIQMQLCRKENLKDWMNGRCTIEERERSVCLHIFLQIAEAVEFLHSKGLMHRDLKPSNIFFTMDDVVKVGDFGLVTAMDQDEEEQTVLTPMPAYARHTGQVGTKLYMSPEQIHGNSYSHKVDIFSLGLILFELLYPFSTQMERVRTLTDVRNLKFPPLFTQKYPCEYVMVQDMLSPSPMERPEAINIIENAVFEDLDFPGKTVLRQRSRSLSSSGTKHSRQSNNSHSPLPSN
readout: IC50 (µM)

• CCNC(=O)c1cc(-c2ccc(NC(=O)[C@H](O)c3cc(F)cc(F)c3)cc2C)cnc1N = 0.004
• COc1cc(NC(=O)[C@H](O)c2cc(F)cc(F)c2)ccc1-c1cnc(N)c(C(=O)NC(C)C)c1 = 0.085

[A] Cc1cc(NC(=O)[C@H](N)c2ccccc2)ccc1-c1cnc(N)c(C(=O)NC(C)C)c1
[B] Cc1cc(NC(=O)[C@H](O)c2cc(F)cc(F)c2)ccc1-c1cnc(N)c(C(=O)NC(C)C)n1
Incoming: Identify the item whose IC50 is the smaller number: A or B Respond with the label that goes with your answer.
Outgoing: B

###

protocol_summary: Half life in human hepatocytes
Assay type: ADME, cell-based, Hepatocyte
readout: half-life (h)

The following compounds have reported results that may help.
- Cc1cc(NC(=O)[C@H](O)c2cccc(Cl)c2)ccc1-c1cnc(N)c(C(=O)NC(C)C)c1: 4.32
- CCc1cc(NC(=O)[C@H](O)c2cc(F)cc(F)c2)ccc1-c1cnc(N)c(C(=O)NC(C)C)c1: 5.17
- Cc1cc(NC(=O)[C@H](O)c2cc(F)cc(F)c2)ccc1-c1cnc(N)c(C(=O)NC(C)C)c1: 4.08

[I] Cc1cc(NC(=O)[C@H](O)c2cc(F)cc(F)c2)ccc1-c1cnc(N)c(C(=O)NC2CC2)c1
[II] CCNC(=O)c1cc(-c2ccc(NC(=O)[C@H](O)c3cc(F)cc(F)c3)cc2C)cnc1N
Incoming: Hey, between I and II which has a smaller measured half-life? To answer, give the label that identifies your chosen option.
Outgoing: II

###

protocol_summary: Plasma protein binding in mouse
Assay type: ADME, cell-free
condition: read-out: PPB (converted)
readout: fraction unbound

• CCc1cc(NC(=O)[C@H](O)c2cc(F)cc(F)c2)ccc1-c1cnc(N)c(C(=O)NC(C)C)c1 = 0.006
• Cc1cc(NC(=O)[C@H](O)c2cc(F)cc(F)c2)ccc1-c1cnc(N)c(C(=O)NC(C)C)c1 = 0.017
• Cc1cc(NC(=O)[C@H](O)c2cccc(Cl)c2)ccc1-c1cnc(N)c(C(=O)NC(C)C)c1 = 0.006

[P] CCNC(=O)c1cc(-c2ccc(NC(=O)[C@H](O)c3cc(F)cc(F)c3)cc2C)cnc1N
[Q] CC(C)NC(=O)c1cc(-c2ccc(NC(=O)[C@H](O)c3cc(F)cc(F)c3)cc2Cl)cnc1N
Incoming: Please choose the item with the lower fraction unbound value from this pair: P and Q // caller expects the label of the chosen entry
Outgoing: Q
(Q: 0.005, P: 0.028)

###

protocol_summary: AUC (0 to last) in mouse at 10 mg/kg, po
Format: ADME, organism-based
Set-up: time 0 - last, route oral, dose 10 mg/kg
condition: in vivo
readout: AUC(0-t) (ng·h/mL)

[I] CCc1cc(NC(=O)[C@H](O)c2cc(F)cc(F)c2)ccc1-c1cnc(N)c(C(=O)NC(C)C)c1
[II] Cc1cc(NC(=O)[C@H](O)c2cc(F)cc(F)c2)ccc1-c1cnc(N)c(C(=O)NC(C)C)c1
Incoming: Please indicate which item has the smaller measured AUC(0-t): I versus II Respond with the label that goes with your answer.
Outgoing: II
(II: 2000 ng·h/mL, I: 5150 ng·h/mL)

###

protocol_summary: Plasma protein binding in dog
Type: ADME, cell-free, Canis lupus familiaris
condition: read-out: PPB (converted)
readout: fraction unbound

Reference set, count: 2
- CC(C)NC(=O)c1cc(-c2ccc(NC(=O)[C@H](O)c3cc(F)cc(F)c3)cc2Cl)cnc1N: 0.005
- CCNC(=O)c1cc(-c2ccc(NC(=O)[C@H](O)c3cc(F)cc(F)c3)cc2C)cnc1N: 0.029

[A] CCc1cc(NC(=O)[C@H](O)c2cc(F)cc(F)c2)ccc1-c1cnc(N)c(C(=O)NC(C)C)c1
[B] Cc1cc(NC(=O)[C@H](O)c2cc(F)cc(F)c2)ccc1-c1cnc(N)c(C(=O)NC2CC2)c1
[C] Cc1cc(NC(=O)[C@H](O)c2cccc(Cl)c2)ccc1-c1cnc(N)c(C(=O)NC(C)C)c1
[D] Cc1cc(NC(=O)[C@H](O)c2cc(F)cc(F)c2)ccc1-c1cnc(N)c(C(=O)NC(C)C)c1
Incoming: List from greatest to least fraction unbound. Return value: ordered labels per request.
Outgoing: B, D, C, A
(B: 0.029, D: 0.014, C: 0.006, A: 0.002)

###

protocol_summary: Apparent permeability of the compound across apical to basolateral side in human Caco-2 cells
Assay type: ADME, cell-based
condition: read-out: permeability
readout: Papp A→B (×10⁻⁶ cm/s)

• Cc1cc(NC(=O)[C@H](O)c2cc(F)cc(F)c2)ccc1-c1cnc(N)c(C(=O)NC2CC2)c1 = 14
• CCNC(=O)c1cc(-c2ccc(NC(=O)[C@H](O)c3cc(F)cc(F)c3)cc2C)cnc1N = 14
• CC(C)NC(=O)c1cc(-c2ccc(NC(=O)[C@H](O)c3cc(F)cc(F)c3)cc2Cl)cnc1N = 24
• CCc1cc(NC(=O)[C@H](O)c2cc(F)cc(F)c2)ccc1-c1cnc(N)c(C(=O)NC(C)C)c1 = 22

[I] Cc1cc(NC(=O)[C@H](O)c2cccc(Cl)c2)ccc1-c1cnc(N)c(C(=O)NC(C)C)c1
[II] Cc1cc(NC(=O)[C@H](O)c2cc(F)cc(F)c2)ccc1-c1cnc(N)c(C(=O)NC(C)C)c1
Incoming: // pick min by Papp A→B: I , II Please indicate the selected item by its label.
Outgoing: II
